target: Polymerase acidic protein (Influenza A virus (A/Puerto Rico/8/1934(H1N1))); test: Inhibitory concentration against cap-dependent endonuclease activity of influenza A/PR/8/34 RNP; type: functional
Mark yes (1) only for IC50 values smaller than 10 µM; exact matches and larger values are no (0).

structureNotation | assignedCategory
CC(=O)c1c(O)n(O)c2cc(NC(=O)/C=C/c3ccccc3Cl)ccc12 | no (0)
O=C(Nc1ccc2c(C(=O)c3ccccc3)c(O)n(O)c2c1)c1cnc2ccccc2n1 | no (0)
CCC(=O)c1c(O)n(O)c2cc(NC(=O)c3cccs3)ccc12 | no (0)
O=C(Nc1ccc2c(C(=O)c3ccccc3)c(O)n(O)c2c1)c1ccc2ccccc2c1 | yes (1)
CCC(=O)c1c(O)n(O)c2cc(NC(=O)Nc3ccc(Cl)cc3)ccc12 | no (0)
CCC(=O)c1c(O)n(O)c2cc(NC(=O)/C=C/c3ccccc3Cl)ccc12 | yes (1)
CC(=O)c1c(O)n(O)c2cc(NC(=O)Nc3cccc(C(=O)O)c3)ccc12 | no (0)
O=C(Nc1ccccc1)Nc1ccc2c(C(=O)c3ccccc3)c(O)n(O)c2c1 | no (0)
O=C(c1ccccc1)c1c(O)n(O)c2cc(NC(=O)C3CCCCC3)ccc12 | no (0)
O=C(Nc1ccc2c(C(=O)c3ccccc3)c(O)n(O)c2c1)c1cccs1 | no (0)
O=C(Nc1cccc(C(=O)O)c1)Nc1ccc2c(C(=O)c3ccccc3)c(O)n(O)c2c1 | yes (1)
CCc1cc(OC)c(OC)c(C(=O)NC[C@@H]2CCCN2CC)c1OC | no (0)
CC(=O)c1c(O)n(O)c2cc(NC(=O)c3cnc4ccccc4n3)ccc12 | no (0)
CCC(=O)c1c(O)n(O)c2cc(NC(=O)Nc3ccccc3)ccc12 | no (0)
CC(=O)c1c(O)n(O)c2cc(NC(=O)c3cccs3)ccc12 | no (0)
O=C(Nc1ccc2c(C(=O)c3ccccc3)c(O)n(O)c2c1)c1ccc(Cl)cc1Cl | no (0)
O=C(c1ccccc1)c1c(O)n(O)c2cc(NS(=O)(=O)c3cccs3)ccc12 | no (0)
CCC(=O)c1c(O)n(O)c2cc(NC(=O)Nc3ccccc3Cl)ccc12 | no (0)
O=C(/C=C/c1ccccc1Cl)Nc1ccc2c(C(=O)c3ccccc3)c(O)n(O)c2c1 | yes (1)
CC(=O)c1c(O)n(O)c2cc(NC(=O)c3ccc4ccccc4c3)ccc12 | yes (1)
O=C(Nc1ccc2c(C(=O)c3ccccc3)c(O)n(O)c2c1)NC1CCCCC1 | no (0)
CCC(=O)c1c(O)n(O)c2cc(NC(=O)c3ccc(Cl)cc3Cl)ccc12 | no (0)
Cc1cc(C(=O)Nc2ccc3c(C(=O)c4ccccc4)c(O)n(O)c3c2)no1 | yes (1)

* * *

target: Polymerase acidic protein (Influenza B virus (strain B/Lee/1940)); test: Inhibitory concentration against cap-dependent endonuclease activity of influenza B/Lee/40 RNP
Sequence (Q9QLI9 whole entry): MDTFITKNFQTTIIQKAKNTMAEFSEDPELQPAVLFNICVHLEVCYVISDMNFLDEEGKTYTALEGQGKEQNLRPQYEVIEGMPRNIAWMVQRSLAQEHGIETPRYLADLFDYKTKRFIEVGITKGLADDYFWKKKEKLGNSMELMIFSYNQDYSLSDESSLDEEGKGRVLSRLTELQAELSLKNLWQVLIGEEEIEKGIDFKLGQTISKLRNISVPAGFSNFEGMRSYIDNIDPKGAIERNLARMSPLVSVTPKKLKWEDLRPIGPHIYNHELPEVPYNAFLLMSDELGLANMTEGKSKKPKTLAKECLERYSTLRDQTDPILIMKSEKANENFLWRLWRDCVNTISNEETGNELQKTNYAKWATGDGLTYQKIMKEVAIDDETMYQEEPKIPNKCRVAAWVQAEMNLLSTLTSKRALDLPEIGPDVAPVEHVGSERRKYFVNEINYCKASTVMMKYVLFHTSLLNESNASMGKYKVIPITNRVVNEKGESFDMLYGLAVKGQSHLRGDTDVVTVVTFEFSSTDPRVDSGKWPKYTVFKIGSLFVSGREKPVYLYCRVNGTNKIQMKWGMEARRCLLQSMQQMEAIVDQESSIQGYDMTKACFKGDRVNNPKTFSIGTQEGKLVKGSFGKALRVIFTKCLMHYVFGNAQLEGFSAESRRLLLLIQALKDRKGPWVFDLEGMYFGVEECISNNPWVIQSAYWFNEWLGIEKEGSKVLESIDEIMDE
observedProperty: IC50 (µM)

structureNotation | assayedTarget | recordedValue
CC(=O)c1c(O)n(O)c2cc(NC(=O)c3ccc4ccccc4c3)ccc12 | Polymerase acidic protein (Influenza B virus (strain B/Lee/1940)) | 18
O=C(Nc1ccc2c(C(=O)c3ccccc3)c(O)n(O)c2c1)c1ccc2ccccc2c1 | Polymerase acidic protein (Influenza B virus (strain B/Lee/1940)) | 29
O=C(/C=C/c1ccccc1Cl)Nc1ccc2c(C(=O)c3ccccc3)c(O)n(O)c2c1 | Polymerase acidic protein (Influenza B virus (strain B/Lee/1940)) | 26
O=C(Nc1ccc2c(C(=O)c3ccccc3)c(O)n(O)c2c1)c1ccccc1 | Polymerase acidic protein (Influenza B virus (strain B/Lee/1940)) | 56
O=C(Nc1cccc(C(=O)O)c1)Nc1ccc2c(C(=O)c3ccccc3)c(O)n(O)c2c1 | Polymerase acidic protein (Influenza B virus (strain B/Lee/1940)) | 6

* * *

Overview of reported IC50 across a group of compounds:
molecular target: Polymerase acidic protein (Influenza A virus (A/Puerto Rico/8/1934(H1N1))); experiment: Inhibitory concentration against cap-dependent endonuclease activity of influenza virus RNP; type: functional, unidentified influenza virus

structureNotation | readingUnit | ltGtEq | IC50
CC(C)/C=C1\N=C(CC(C)C)C(=O)N(O)C1=O | µM | = | 5.5
CC(C)CC1=N/C(=C\c2ccc(F)cc2)C(=O)NC1=O | µM | > | 365
O=C1Cc2ccccc2CN1O | µM | = | 100
O=C1CCc2ccccc2C(=O)N1O | µM | > | 1000
O=c1c2nccnc2ncn1O | µM | > | 500
COCON1C(=O)C(CC(C)C)=N/C(=C\C(C)C)C1=O | µM | > | 355
CON1C(=O)Cc2ccccc2C1=O | µM | = | 710

* * *

target: Polymerase acidic protein (Influenza A virus (A/Puerto Rico/8/1934(H1N1))); test: Inhibitory concentration against cap-dependent endonuclease activity of influenza virus RNP; type: functional, unidentified influenza virus
observedProperty: IC50

molecule | recordedValue
O=C1c2ccccc2C(=O)N1O | > 500 µM
O=C(O)C(=O)/C=C(\O)c1ccc(C2CCCCC2)cc1 | 5 µM
O=C(NO)c1ccccc1 [BENZOHYDROXAMATE] | > 500 µM
NN1C(=O)Cc2ccccc2C1=O | 800 µM
O=C1Cc2ccccc2CC(=O)N1O | > 1000 µM
O=c1[nH]c2nccnc2c(=O)n1O | 95 µM

* * *

target: Polymerase acidic protein (Influenza A virus (A/Puerto Rico/8/1934(H1N1))); assay: Inhibitory concentration against cap-dependent endonuclease activity of influenza A/PR/8/34 RNP; type: functional
pIC50: −log10 of the molar value.
Overview of reported pIC50 across a group of compounds:
observedProperty: pIC50

structureNotation | observedProperty | recordedValue
CCC(=O)c1c(O)n(O)c2cc(NC(=O)Nc3cccc(C(=O)O)c3)ccc12 | pIC50 | 5.00
CCC(=O)c1c(O)n(O)c2cc(NC(=O)c3cnc4ccccc4n3)ccc12 | pIC50 | 5.00
O=C(Nc1ccc2c(C(=O)c3ccccc3)c(O)n(O)c2c1)c1ccccc1 | pIC50 | 5.00
